Assay: Water solubility test (Comparative Example 1)
Type: physicochemical
Details: thermodynamic from solid; deionized water, 25° C., 24 hours, HPLC
Structures can show the parent of a compound that is named as a salt.
property_label: solubility at 24 h

Fill in solubility at 24 h for record CC1(C)CCC(CN2CCN(c3ccc(C(=O)NS(=O)(=O)c4ccc(NCC5CCOCC5)c([N+](=O)[O-])c4)c(Oc4cnc5[nH]ccc5c4)c3)CC2)=C(c2ccc(Cl)cc2)C1 [ABT-199 monohydrochloride Form A] ~40 µg/mL

Data provenance is patent US10759798B2.
